Tested on: Fibroblast
PROTOCOL DETAILS: Multiplex assay against human fibroblast
Assay type: toxicity, cell-based
ASSAY SETUP: 48 h, 10 µM, compound concentration 10 uM, replicate 2
QUANTITY MEASURED: Population Membrane Permeable-Phenotype (%)
Kindly report the value followed by its unit.

Prompt: Fill in the blank: the reported Population Membrane Permeable-Phenotype (%) of N#Cc1c(Oc2cccc(OS(=O)(=O)CCCC(F)(F)F)c2)cccc1C(F)(F)F is ____.
Response: 23%

Prompt: Which Population Membrane Permeable-Phenotype (%) is listed for CCCCCC(O)/C=C/[C@H]1C(=O)CC(O)C1C/C=C\CCCC(=O)O (stereo partly drawn) ?
Response: 6%

Prompt: What value of Population Membrane Permeable-Phenotype (%) has been recorded for this entry: Cl.NCCc1ccc(O)c(O)c1 [DOPAMINE HYDROCHLORIDE]
Response: 7%

Prompt: Need Population Membrane Permeable-Phenotype (%), item CC(C)(C)c1cc(NC(=O)Nc2ccc(-c3cn4c(n3)sc3cc(OCCN5CCOCC5)ccc34)cc2)no1
Response: 2%

Prompt: Endpoint output: Population Membrane Permeable-Phenotype (%) of O=C(NCCN1CCC(n2c(=O)[nH]c3cc(Cl)ccc32)CC1)c1ccc(F)cc1 [HALOPEMIDE] . Value?
Response: 10%

---
Prompt: Can you look up the measured Population Membrane Permeable-Phenotype (%) of COC[C@@H](c1ccc(C(F)(F)F)cc1)N1CCN(C2(C)CCN(C(=O)c3c(C)ncnc3C)CC2)C[C@@H]1C.O=C(O)/C=C\C(=O)O [VICRIVIROC MALEATE] for me?
Response: 9%

Prompt: # query: Population Membrane Permeable-Phenotype (%) of entry O=C1[C@H](Cc2ccc(O)cc2)N2C(=O)CCN(C(=O)NCc3ccccc3)[C@H]2CN1Cc1cccc2ccccc12
Response: 5%

Prompt: Look at this compound and give its reported Population Membrane Permeable-Phenotype (%). C[C@H](N)COC(=O)[C@@H](CCCCN)NC(=O)Cc1c(-c2ccc3ccccc3c2)[nH]c2c1ccc1ccccc12
Response: 7%

Prompt: Value lookup for Population Membrane Permeable-Phenotype (%); key = Cc1onc(-c2ccccc2Cl)c1C(=O)N(C)c1ccc(Cl)cc1
Response: 8%

Prompt: Which Population Membrane Permeable-Phenotype (%) value belongs to CCc1cc2cc(NS(=O)(=O)c3ccc(C#N)cc3)ccc2n(CC)c1=O ?
Response: 18%

Prompt: Query: Population Membrane Permeable-Phenotype (%); subject: Cc1noc(-c2ccc(-c3ccc(CC(=O)O)cc3)cc2)c1NC(=O)O[C@H](C)c1ccccc1Cl
Response: 0%

Prompt: Reported Population Membrane Permeable-Phenotype (%) for CC(C)c1noc(N2CCC(COc3ccc(-c4ccc(S(C)(=O)=O)cc4)nc3)CC2)n1 : what is it?
Response: 9%

Prompt: Need Population Membrane Permeable-Phenotype (%) of N#Cc1cc(F)cc(-c2nc(-c3ccc(F)cn3)no2)c1 , thanks.
Response: 15%

Prompt: Consider the compound shown here: CN1CCN(c2cc(-c3ccccc3)nc(N)n2)CC1 What is its recorded Population Membrane Permeable-Phenotype (%)?
Response: 9%

Prompt: Given CN(C)C(=O)Cn1cc(-c2ccc(-c3cncc4ccccc34)cc2)cn1 , state its recorded Population Membrane Permeable-Phenotype (%).
Response: 8%

Prompt: So what's the measured Population Membrane Permeable-Phenotype (%) for this one? CCCOc1ccc2[nH]cc(C3=CCNCC3)c2n1.Cl
Response: 4%

Prompt: # Population Membrane Permeable-Phenotype (%) lookup, item CCCCC(=O)N(Cc1ccc(-c2ccccc2-c2nnn[nH]2)cc1)[C@H](C(=O)O)C(C)C
Response: 7%

Prompt: Using the record for CCCCC1=NC2(CCCC2)C(=O)N1Cc1ccc(-c2ccccc2-c2nnn[nH]2)cc1 , report its Population Membrane Permeable-Phenotype (%).
Response: 3%
